- System: SUM149
- measurement-description: percent difference in area under dose-response curve of relative cell number, RPMI vs HPLM; higher = drug relatively more effective in HPLM than RPMI (negative = less effective in HPLM)
- run-conditions: treatment time: 72 h; dose range: 10-point, 1 nM to 20 µM; media compared: RPMI vs HPLM
measured-property: percent difference in area under dose-response curve (%)
Report as a plain number; the unit % is understood.

# return recorded percent difference in area under dose-response curve for entry CNC(=O)c1cc(Oc2ccc(NC(=O)Nc3cc(C(C)(C)C)nn3-c3ccc4ncccc4c3)c(F)c2)ccn1 -8.43

Could you please provide reported percent difference in area under dose-response curve for Cc1cnc(-c2ccccc2C(C)C)nc1NCc1ccc(-n2ccnn2)cc1 ? Thanks! -3.5

Fill in percent difference in area under dose-response curve for record C[C@H]1[C@H](OC(=O)CCC(=O)O)O[C@@H]2O[C@@]3(C)CC[C@H]4[C@H](C)CC[C@@H]1[C@@]24OO3 [Artesunate] -1.87

Using known records, supply percent difference in area under dose-response curve for COc1ncc(-c2ccc3nccc(-c4ccnnc4)c3c2)cc1NS(=O)(=O)c1ccc(F)cc1F -12.4

Return reported percent difference in area under dose-response curve. Input compound: C[C@@H](Oc1cc(-c2cnn(C3CCNCC3)c2)cnc1N)c1c(Cl)ccc(F)c1Cl -5.74

Identify the reported percent difference in area under dose-response curve for the following entry. Cn1cc(-c2ccc3c(c2)CCN3C(=O)Cc2cccc(C(F)(F)F)c2)c2c(N)ncnc21 4.03

Complete the entry with percent difference in area under dose-response curve for CC(=O)Nc1cccc(-n2c(=O)n(C3CC3)c(=O)c3c(Nc4ccc(I)cc4F)n(C)c(=O)c(C)c32)c1 -18.1

Give the value of percent difference in area under dose-response curve reported for the following: Cc1cnc(NC(=O)Nc2cc(Br)c(C)cc2OC[C@@H]2CNCCO2)cn1 1.27

Indicate the recorded percent difference in area under dose-response curve value for this compound: CN(C)CCOc1ccc(/C(=C(/CCCl)c2ccccc2)c2ccccc2)cc1 [Toremifene_Citrate] 2.31

Look up and report measured percent difference in area under dose-response curve for this entry: Cc1cc(Nc2nc(N[C@@H](C)c3ncc(F)cn3)ncc2Cl)[nH]n1 -7.89

Identify measured percent difference in area under dose-response curve corresponding to O=c1cc(-c2cccc3c2Sc2ccccc2S3)oc(N2CCOCC2)c1 4.24

Look up percent difference in area under dose-response curve of COc1cccc(-c2cc(F)ccc2[C@H]2Cc3nc(N)nc(C)c3C(=O)N2)n1 and report it. -28.8

Tell me percent difference in area under dose-response curve reported for Cc1[nH]c(/C=C2\C(=O)Nc3ccc(S(=O)(=O)Cc4c(Cl)cccc4Cl)cc32)c(C)c1C(=O)N1CCC[C@@H]1CN1CCCC1 -10.1

Given CC(C)=CCC1=C(O)C(=O)c2ccccc2C1=O , respond with its percent difference in area under dose-response curve. 10.9

Note down percent difference in area under dose-response curve recorded for CN1CCN(c2ccc3nc(-c4c(N)c5c(F)cccc5[nH]c4=O)[nH]c3c2)CC1 -0.391

Identify measured percent difference in area under dose-response curve associated with COc1cc2nccc(Oc3ccc(NC(=O)C4(C(=O)Nc5ccc(F)cc5)CC4)cc3)c2cc1OC [Cabozantinib_malate] 13.2

Entry COc1cc2c(cc1O)CC[C@@H]1[C@@H]2CC[C@]2(C)[C@@H](O)CC[C@@H]12 needs its percent difference in area under dose-response curve filled in; supply it. 6.52
